Test system: RPMI-8226
Format: cell-based
condition_context: Homo sapiens, one dose 10^-5 M, 48 h
# reported % growth at 10 µM; entries follow
Express your answer in %, writing the number without its unit.

Consider the following illustrative entries.
compound_string: CN(C)c1ccc(-c2nc(S)nc(N)c2C(=N)NN=Cc2ccc(Cl)cc2)cc1
experimental_endpoint: % growth at 10 µM
units_of_measure: %
observed: 79.1
//
compound_string: N=C(NN=Cc1ccc([N+](=O)[O-])cc1)c1c(N)nc(S)nc1-c1ccc(Cl)cc1Cl
experimental_endpoint: % growth at 10 µM
units_of_measure: %
observed: 97.3
//
compound_string: CN(C)c1ccc(-c2nc(S)nc(N)c2C#N)cc1
experimental_endpoint: % growth at 10 µM
units_of_measure: %
observed: 80.5
//
compound_string: N=C(NN=Cc1ccc(Cl)cc1Cl)c1c(N)nc(S)nc1-c1ccc(Cl)cc1
experimental_endpoint: % growth at 10 µM
units_of_measure: %
observed: 46.5
//
compound_string: N=C(NN=Cc1ccc([N+](=O)[O-])cc1)c1c(N)nc(S)nc1-c1ccc(Cl)cc1
experimental_endpoint: % growth at 10 µM
units_of_measure: %
observed: 89

Value sought: % growth at 10 µM, system RPMI-8226, item CN(C)c1ccc(-c2cc([N+](=O)[O-])ccc2C=NNC(=N)c2cnc(S)nc2N)cc1 . Result: 97

Measured % growth at 10 µM for this entry CN(C)c1ccc(-c2nc(S)nc(N)c2C(=N)NN=Cc2ccc(Cl)cc2Cl)cc1 on RPMI-8226: 80.6

Entry N#Cc1c(N)nc(S)nc1-c1ccc(Cl)cc1 , RPMI-8226 data, % growth at 10 µM value: 47.2

----------
The following compounds are shown together with reported % cell growth at 10 µM values.
System: SF-295
Format: cell-based
condition_context: Homo sapiens, one dose 10^-5 M, 48 h

Worked set:
compound: CN(C)c1ccc(-c2nc(S)nc(N)c2C(=N)NN=Cc2ccccc2)cc1 [Compound 4a]
observed: 104%
--
compound: N=C(NN=Cc1ccc([N+](=O)[O-])cc1)c1c(N)nc(S)nc1-c1ccc(Cl)cc1 [Compound 4i]
observed: 96.7%
--
compound: N=C(NN=Cc1ccc(Cl)cc1)c1c(N)nc(S)nc1-c1ccc(Cl)cc1 [Compound 4h]
observed: 90.2%
--
compound: Nc1nc(S)nc(-c2ccc(Cl)cc2Cl)c1-c1ncn[nH]1 [Compound 5c]
observed: 100%
--
compound: COc1ccc(/C=N\NC(=N)c2c(N)nc(S)nc2-c2ccc(N(C)C)cc2)cc1 [Compound 4d]
observed: 104%

Now look at this one.
Sample CN(C)c1ccc(-c2nc(S)nc(N)c2-c2ncn[nH]2)cc1 [Compound 5a] ; % cell growth at 10 µM observed: 104%

----------
Test system: SK-MEL-5
Type: cell-based
condition_context: Homo sapiens, one dose 10^-5 M, 48 h, read-out: % growth
experimental_endpoint: activity at 10 µM (%)
Provide the reading as a plain figure in %.

Completed entries (count: 3):
molecule: COc1ccc(C=NNC(=N)c2c(N)nc(S)nc2-c2ccc(Cl)cc2Cl)cc1 [Compound 4p]
tested_on: SK-MEL-5
units_of_measure: %
observed: 105
--
molecule: N=C(NN=Cc1ccc(Cl)cc1)c1c(N)nc(S)nc1-c1ccc(Cl)cc1Cl [Compound 4n]
tested_on: SK-MEL-5
units_of_measure: %
observed: 103
--
molecule: N=C(NN=Cc1ccc([N+](=O)[O-])cc1)c1c(N)nc(S)nc1-c1ccc(Cl)cc1Cl [Compound 4o]
tested_on: SK-MEL-5
units_of_measure: %
observed: 104

For this molecule ( CN(C)c1ccc(-c2nc(S)nc(N)c2-c2ncn[nH]2)cc1 [Compound 5a] ), measured activity at 10 µM is 108

Kindly note the recorded activity at 10 µM for COc1ccc(C=NNC(=N)c2c(N)nc(S)nc2-c2ccc(Cl)cc2)cc1 [Compound 4j] , which is 102

Record Nc1nc(S)nc(-c2ccc(Cl)cc2)c1-c1ncn[nH]1 [Compound 5b] . Reported activity at 10 µM: 98.7

Short answer for N#Cc1c(N)nc(S)nc1-c1ccc(Cl)cc1Cl [Compound 1c] : activity at 10 µM was 58.1

get_value(item= N#Cc1c(N)nc(S)nc1-c1ccc(Cl)cc1 [Compound 1b] , readout=activity at 10 µM) returns 85.9

The molecule CN(C)c1ccc(-c2nc(S)nc(N)c2C(=N)NN=Cc2ccc(Cl)cc2Cl)cc1 [Compound 4f] showed activity at 10 µM equal to 99.3
